# Test Name: PAR plasma concentration by HPLC
# Type: in vivo
# Cond: Sprague Dawley, rat, oral, 1725 mg/kg
Assay Endpoint: concentration at 48 h (ng/mL)
Give just the number in ng/mL; leave the unit off.

Just so you know, measured concentration at 48 h for CC(=O)Nc1ccc(O)cc1 [PAR, paracetamol] came out at 4450

* * *

# Test Name: PAR plasma concentration by HPLC
# Format: in vivo
# Cond: Sprague Dawley, rat, oral, 1725 mg/kg
Assay Endpoint: concentration at 24 h (ng/mL)
Output spec: scalar in ng/mL, unitless text.

CC(=O)Nc1ccc(O)cc1 [PAR, paracetamol] yielded concentration at 24 h of 5720
